# Test system: Staphylococcus aureus
# protocolDescription: Antibacterial activity against Methicillin-sensitive Staphylococcus aureus ATCC 25923 incubated for 18 hrs by Luria-Bertani broth based plate reader analysis
# Format: functional
readoutType: MIC50

Give the reported MIC50 for this molecule. `C/C1=C\[C@H]2[C@@H](CC[C@]3(C)Oc4c(C=O)c(O)c(C(=O)CC(C)C)c(O)c4C[C@H]3CC1)C2(C)C`
> 75 µM

Answer with reported MIC50 of `C/C1=C\[C@@H]2[C@H](CC[C@@]3(C)Oc4c(c(O)c(C=O)c(O)c4C(=O)CC(C)C)C[C@@H]3CC1)C2(C)C`
75 µM

Assign MIC50 to the following record: `CC(=O)O[C@H]1C[C@@]2(C)[C@@H](C[C@@H](O)[C@H]3[C@@]4(C)CC[C@@H](O)[C@@H](C)[C@@H]4CC[C@@]32C)/C1=C(\CCC=C(C)C)C(=O)O`
< 0.12 µM

# return recorded MIC50 for input `C=C(C)[C@@H]1C=C2[C@@H](C)CC[C@@H](Cc3c(O)c(C=O)c(O)c(C(=O)CC(C)C)c3O)[C@]2(C)CC1`
4.7 µM
